Origin of values: patent US10471046B2

Experiment: Approximate solubility in solvents by aliquot addition
Type: physicochemical
Conditions: hexamethylphosphoramide, organic solvent or mixture, thermodynamic from solid, Hexamethyl-phosphoramide, ambient temperature
Measurement Type: solubility

{"Compound": "CC(=O)NC[C@H]1CN(c2ccc(-c3ccc(CNCc4cnn[nH]4)cc3)c(F)c2)C(=O)O1 [Radezolid]", "Assay Value": "< 26 mg/mL"}

---

Test: Approximate solubility in solvents by aliquot addition
Assay type: physicochemical
Conditions: ethyl acetate, organic solvent or mixture, thermodynamic from solid, ambient temperature

{"Compound": "CC(=O)NC[C@H]1CN(c2ccc(-c3ccc(CNCc4cnn[nH]4)cc3)c(F)c2)C(=O)O1 [Radezolid]", "solubility": "< 1000 µg/mL"}
